# assayMethodText: chemical genetic growth profiling, strain panel (AID 1159580);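 also: tested at 20 µM; growth read once vehicle control cultures reached saturation at 30 °C; 1 = growth at the plate median or of vehicle wells; lower values mean less growth of the strain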
# condition: S. cerevisiae deletion strains, growth OD, locus YHR013C, strain ard1, active compounds read low
Out of some 5,500 compounds screened, about 2,000 (36%) were called active. Not shown: some 18% with an inconclusive outcome. This is one part of the list.

molecule	normalized growth
CCN(CCO)CCCC(C)Nc1ccnc2cc(Cl)ccc12 (stereo not given)	1
CC(Oc1ccccc1)C(=O)N[C@@H]1C(=O)N2[C@@H]1SC(C)(C)[C@@H]2C(=O)O (stereo not given in full)	0.984
NCCSSCCN	0.996
COc1ccc2c(c1OC)C(=O)O[C@H]2[C@H]1c2cc3c(cc2CCN1C)OCO3	0.974
CC(=O)N[C@@H](CC(C)C)C(=O)O	1.01
COc1ccc(OC)c(C(O)C(C)N)c1 (stereo not given)	0.99
CC(C)OC(=O)C(C)(C)Oc1ccc(C(=O)c2ccc(Cl)cc2)cc1	0.963
CS(=O)(=O)c1ccc(C2=C(c3ccccc3)C(=O)OC2)cc1	0.971
Cc1cc(O)c(C)c(O)c1C(=O)O	0.954
COc1cc2c(cc1OC)C(=O)OC2	0.988
COc1cc2c(cc1OC)Cc1cc(OC)c(OC)cc1Cc1cc(OC)c(OC)cc1C2	1.05
CC(N)C(=O)OC(C)(C)Cc1ccc(Cl)cc1 (stereo not given)	1.04
CC1CC2C3CC(F)C4=CC(=O)C=CC4(C)C3(F)C(O)CC2(C)C1(O)C(=O)CO (stereo not given)	0.985
NCC1CCC(C(=O)O)CC1 (stereo not given)	0.979
CCC(=O)O[C@H]1[C@H](O[C@@H]2[C@@H](C)[C@H](O[C@H]3C[C@@](C)(OC)[C@@H](O)[C@H](C)O3)[C@@H](C)C(=O)O[C@H](CC)[C@@](C)(O)[C@H](O)[C@@H](C)C(=O)[C@H](C)C[C@@]2(C)O)O[C@H](C)C[C@@H]1N(C)C	0.722
CCOC(=O)c1c(C)c(Cl)c(O)c(Cl)c1O	0.634
Cc1cc(O)c(C=O)c(O)c1C(=O)O	1.01
CC(C)(O)[C@@H]1[C@H]2OC(=O)[C@@H]1[C@]1(O)C[C@H]3O[C@]34C(=O)O[C@H]2[C@]14C	0.988
COc1ccc2c(C)cc(=O)oc2c1	0.956
CCCCCCCCCCCCCCCC(=O)OC/C=C(C)/C=C/C=C(C)/C=C/C1=C(C)CCCC1(C)C	1.05
COc1cc(NS(=O)(=O)c2ccc(N)cc2)nc(OC)n1	0.988
Oc1cc(Cl)ccc1Oc1ccc(Cl)cc1Cl	0.104
CC1=C(C(C)O)C2=NC1C=c1[nH]c(c(C)c1C(C)O)=Cc1[nH]c(c(CCC(=O)O)c1C)C=c1[nH]c(c(C)c1CCC(=O)O)=C2 (stereo not given)	0.931
O=C(O)c1cc2ccccc2c(Cc2c(O)c(C(=O)O)cc3ccccc23)c1O	0.966
CC1=C(CC(=O)O)c2cc(F)ccc2/C1=C\c1ccc(S(C)=O)cc1 (stereo not given)	1.03
COc1ccc2c(c1)OCc1c-2oc2cc(OC)ccc12	0.975
COC1=C(OC)C(=O)C(C/C=C(\C)CC/C=C(\C)CC/C=C(\C)CC/C=C(/C)CC/C=C(\C)CC/C=C(\C)CC/C=C(\C)CC/C=C(\C)CC/C=C(\C)CCC=C(C)C)=C(C)C1=O	0.957
CC(=O)OCC[N+](C)(C)C	1.11
CC1=C(C/C=C(\C)CCC[C@H](C)CCC[C@H](C)CCCC(C)C)C(=O)c2ccccc2C1=O	0.975
c1ccc(N=Nc2ccccc2)cc1	1.07
